# experimental.system: T1, human MAdCAM expressed on cells (human, UniProt Q13477 19-382)
# T1 construct: whole, on cells; also called MADCAM1
# T1 sequence (looked up): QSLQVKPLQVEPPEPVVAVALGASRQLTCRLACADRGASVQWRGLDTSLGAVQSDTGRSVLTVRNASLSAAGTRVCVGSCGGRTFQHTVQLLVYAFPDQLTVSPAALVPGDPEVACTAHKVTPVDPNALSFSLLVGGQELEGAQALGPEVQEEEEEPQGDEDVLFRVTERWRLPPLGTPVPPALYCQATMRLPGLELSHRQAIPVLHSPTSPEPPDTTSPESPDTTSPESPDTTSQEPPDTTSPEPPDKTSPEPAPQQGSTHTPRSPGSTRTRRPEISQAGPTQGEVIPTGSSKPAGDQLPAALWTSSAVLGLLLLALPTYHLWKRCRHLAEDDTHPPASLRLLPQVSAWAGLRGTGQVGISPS
# experimental.details: cell binding

binder: MAdCAM antibody Clone ID 48 of Table 6 (scFv) (scFv) scFv: EVQLLESGGGLVQPGGSLRLSCAASGFTFSDHGMHWVRQAPGKGLEWVSVIYGGESTYYADSVKGRFTISRDNSKNTLYLQMNSLRAEDTAVYYCARDPAVAGGGIFDYWGQGTLVTVSSGGGGSGGGGSGGGGSGGGGSDIQMTQSPSSLSASVGDRVTITCRASQGISNYLAWYQQKPGKAPKLLIYDASNLETGVPSRFSGSGSGTDFTLTISSLQPEDFATYYCQQSYSTCYTFGQGTKLEIK
binding result: binds
--
binder: MAdCAM antibody Clone ID 29 of Table 6 (scFv) (scFv) scFv: QVQLVQSGAEVKKPGASVKVSCKASGYTFTSYYMHWVRQAPGQGLEWMAWMNPNSGNTGYAQKFQGRVTMTRDTSTSTVYMELSSLRSEDTAVYYCARDYDFWSGSLGYWGQGTLVTVSSGGGGSGGGGSGGGGSGGGGSDIQMTQSPSSLSASVGDRVTITCRASQGISNYLAWYQQKPGKAPKLLIYAASSLQSGVPSRFSGSGSGTDFTLTISSLQPEDFATYYCQQSYSTPWTFGQGTKVEIK
binding result: binds
--
binder: MAdCAM antibody Clone ID 23 of Table 6 (scFv) (scFv) scFv: EVQLLESGGGLVQPGGSLRLSCAASGFTFSSYAMHWVRQAPGKGLEWVSGISGSGGSAYYADSVKGRFTISRDNSKNTLYLQMNSLRAEDTAVYYCATSQAPVDYYYYGMDVWGQGTTVTVSSGGGGSGGGGSGGGGSGGGGSDIQMTQSPSSLSASVGDRVTITCRASQSISSWLAWYQQKPGKAPKLLIYAASNLQRGVPSRFSGSGSGTDFTLTISSLQPEDFATYYCQQSYSIPITFGQGTKVEIK
binding result: binds
